Test: Dissociation constant was determined
Type: physicochemical
pKd: −log10 of the molar value.
property.label: pKd

Return reported pKd. Input molecule: Nc1ccc(Sc2ccc3ccccc3c2Cl)c(Cl)c1
> 4.70

---

Target: Intercellular adhesion molecule (ICAM-1), Integrin alpha-L/beta-2 (Homo sapiens, UniProt P05107+P20701)
Sequence (P20701 whole entry): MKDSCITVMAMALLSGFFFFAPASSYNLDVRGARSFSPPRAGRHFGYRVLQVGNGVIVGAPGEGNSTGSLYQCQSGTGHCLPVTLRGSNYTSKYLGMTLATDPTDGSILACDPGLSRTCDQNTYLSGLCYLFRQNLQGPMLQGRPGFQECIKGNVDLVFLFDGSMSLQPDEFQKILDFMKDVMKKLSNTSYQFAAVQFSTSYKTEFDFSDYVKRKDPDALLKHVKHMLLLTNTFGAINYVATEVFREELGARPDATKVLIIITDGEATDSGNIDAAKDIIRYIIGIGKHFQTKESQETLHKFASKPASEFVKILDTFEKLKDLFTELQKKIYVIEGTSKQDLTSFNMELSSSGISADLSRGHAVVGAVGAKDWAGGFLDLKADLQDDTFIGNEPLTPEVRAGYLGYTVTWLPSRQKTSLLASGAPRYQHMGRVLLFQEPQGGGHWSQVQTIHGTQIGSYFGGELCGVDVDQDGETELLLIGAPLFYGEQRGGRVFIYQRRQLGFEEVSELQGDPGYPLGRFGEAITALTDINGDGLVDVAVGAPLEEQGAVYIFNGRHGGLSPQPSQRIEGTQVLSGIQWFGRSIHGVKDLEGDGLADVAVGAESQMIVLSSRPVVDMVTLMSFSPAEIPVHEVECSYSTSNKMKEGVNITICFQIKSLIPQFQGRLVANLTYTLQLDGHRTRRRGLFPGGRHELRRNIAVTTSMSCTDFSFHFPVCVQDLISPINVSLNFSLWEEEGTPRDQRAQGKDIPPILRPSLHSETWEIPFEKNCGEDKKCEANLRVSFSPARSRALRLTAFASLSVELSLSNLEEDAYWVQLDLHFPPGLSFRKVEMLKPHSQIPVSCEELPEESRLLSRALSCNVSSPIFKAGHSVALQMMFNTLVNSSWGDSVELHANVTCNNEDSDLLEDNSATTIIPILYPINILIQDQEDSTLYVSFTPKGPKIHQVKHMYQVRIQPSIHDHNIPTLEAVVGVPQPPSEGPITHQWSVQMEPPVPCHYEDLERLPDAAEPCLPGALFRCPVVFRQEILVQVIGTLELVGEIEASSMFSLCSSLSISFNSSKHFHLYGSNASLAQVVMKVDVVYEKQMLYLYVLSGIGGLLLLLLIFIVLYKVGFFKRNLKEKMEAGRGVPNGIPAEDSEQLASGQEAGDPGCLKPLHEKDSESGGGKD
Sequence (P05362 whole entry, further chain): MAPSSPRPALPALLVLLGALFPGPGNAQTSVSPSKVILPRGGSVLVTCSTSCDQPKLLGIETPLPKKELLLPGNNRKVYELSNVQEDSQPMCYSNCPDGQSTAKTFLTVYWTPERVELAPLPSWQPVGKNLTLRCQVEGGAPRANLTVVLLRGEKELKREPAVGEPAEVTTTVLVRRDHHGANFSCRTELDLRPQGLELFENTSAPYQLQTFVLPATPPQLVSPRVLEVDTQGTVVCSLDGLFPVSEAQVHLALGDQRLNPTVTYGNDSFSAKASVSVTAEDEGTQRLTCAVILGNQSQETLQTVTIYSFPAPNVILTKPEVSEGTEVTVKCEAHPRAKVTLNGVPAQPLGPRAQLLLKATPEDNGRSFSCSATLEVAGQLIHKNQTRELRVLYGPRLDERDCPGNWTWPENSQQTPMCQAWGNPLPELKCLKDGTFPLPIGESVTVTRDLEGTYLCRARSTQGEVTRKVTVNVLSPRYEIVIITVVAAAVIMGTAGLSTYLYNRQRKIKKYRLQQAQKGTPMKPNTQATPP
Sequence (P05107 whole entry): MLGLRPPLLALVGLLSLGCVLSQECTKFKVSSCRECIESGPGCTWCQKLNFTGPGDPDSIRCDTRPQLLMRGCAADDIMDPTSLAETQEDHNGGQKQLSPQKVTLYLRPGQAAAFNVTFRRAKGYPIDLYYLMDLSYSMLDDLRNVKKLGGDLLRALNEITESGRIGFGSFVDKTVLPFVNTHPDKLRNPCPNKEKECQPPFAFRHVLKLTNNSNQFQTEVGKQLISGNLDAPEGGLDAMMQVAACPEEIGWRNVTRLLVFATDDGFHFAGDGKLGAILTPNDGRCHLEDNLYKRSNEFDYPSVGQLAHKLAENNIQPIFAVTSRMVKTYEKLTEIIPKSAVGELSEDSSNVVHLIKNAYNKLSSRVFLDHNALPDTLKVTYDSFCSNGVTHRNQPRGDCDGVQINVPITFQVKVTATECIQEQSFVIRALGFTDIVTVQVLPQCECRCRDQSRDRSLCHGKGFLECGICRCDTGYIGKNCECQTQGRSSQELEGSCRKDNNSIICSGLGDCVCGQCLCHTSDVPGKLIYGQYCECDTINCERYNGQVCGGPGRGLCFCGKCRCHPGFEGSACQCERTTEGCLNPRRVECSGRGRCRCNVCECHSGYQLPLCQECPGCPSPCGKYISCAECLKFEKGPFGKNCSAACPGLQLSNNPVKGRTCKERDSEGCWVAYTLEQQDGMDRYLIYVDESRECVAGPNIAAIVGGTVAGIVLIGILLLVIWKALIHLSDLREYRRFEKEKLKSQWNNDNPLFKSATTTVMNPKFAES
Assay: Inhibition of JY-8 cell adhesion via leukocyte function associated antigen 1 (LFA-1) to ICAM-1, range (320-350)
Format: cell-based
property.label: pIC50
Notebook: values listed as pIC50 are -log10 of the concentration (mol/L).

Provide one value: measured pIC50 of CC(=O)N1CCN(C(=O)/C=C/c2ccc(Sc3ccc4c(ccn4CC(=O)O)c3)c(Cl)c2)CC1
6.48
